Biological target: T1, IL-18 receptor (IL-18Rαβ) on cells (UniProt Q13478 19-541; O95256 20-599, limits assumed)
T1 sequence (looked up) 1: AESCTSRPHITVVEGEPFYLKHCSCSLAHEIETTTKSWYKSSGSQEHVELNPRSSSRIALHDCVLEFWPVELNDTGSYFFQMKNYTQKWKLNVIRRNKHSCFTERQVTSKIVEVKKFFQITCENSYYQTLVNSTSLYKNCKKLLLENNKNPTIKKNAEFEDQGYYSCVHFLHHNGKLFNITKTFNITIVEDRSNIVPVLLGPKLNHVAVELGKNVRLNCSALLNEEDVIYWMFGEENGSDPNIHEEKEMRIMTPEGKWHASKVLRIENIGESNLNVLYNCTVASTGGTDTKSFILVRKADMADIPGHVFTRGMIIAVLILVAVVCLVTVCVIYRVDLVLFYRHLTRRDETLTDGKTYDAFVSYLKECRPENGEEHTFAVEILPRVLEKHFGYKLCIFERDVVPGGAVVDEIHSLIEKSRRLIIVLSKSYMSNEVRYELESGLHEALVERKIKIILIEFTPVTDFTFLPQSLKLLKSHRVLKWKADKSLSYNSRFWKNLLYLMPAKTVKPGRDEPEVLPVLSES
T1 sequence (looked up) 2: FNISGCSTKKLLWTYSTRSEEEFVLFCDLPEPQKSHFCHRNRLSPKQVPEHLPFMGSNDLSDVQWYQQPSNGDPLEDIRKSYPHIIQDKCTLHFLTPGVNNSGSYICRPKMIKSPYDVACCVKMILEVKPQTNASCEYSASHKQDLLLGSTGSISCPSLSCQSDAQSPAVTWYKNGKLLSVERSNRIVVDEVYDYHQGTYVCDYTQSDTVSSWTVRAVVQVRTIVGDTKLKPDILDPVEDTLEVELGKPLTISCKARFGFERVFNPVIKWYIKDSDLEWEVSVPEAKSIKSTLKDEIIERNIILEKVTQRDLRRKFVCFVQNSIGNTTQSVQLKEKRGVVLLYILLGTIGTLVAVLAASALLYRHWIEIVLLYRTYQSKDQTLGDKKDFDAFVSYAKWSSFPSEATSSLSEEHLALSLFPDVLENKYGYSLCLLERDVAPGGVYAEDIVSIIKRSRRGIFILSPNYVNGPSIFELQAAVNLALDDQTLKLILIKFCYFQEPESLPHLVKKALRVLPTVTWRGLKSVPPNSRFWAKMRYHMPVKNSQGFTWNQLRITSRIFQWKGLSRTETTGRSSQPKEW
Test: cell-based or functional assay
property: HEK-Blue IL-18R reporter EC50 (pM)

Solved entries:
| binder | data_value |
| --- | --- |
| C163 (ligand) YFGKLESKLSIIRNLNDQVLFIDQGNRPLFEDMTDSDARDNAPRTIFIISMYKDSQPRGMAVTISVKCEKISTLSAENKIISFKEMNPPDNIKDTKSDIIFFKRSVPGHDNKMQFESSSYEGYFLAAEKERDLFKLILKKEDELGDRSIMFTVQNED | 1.5 |
| C144 (ligand) YFGKLESKLSIIRNLNDQVLFIDQGNRPLFEDMTDSDARDNAPRTIFIISMYADSQPRGMAVAISVKCEKISTLSAENKIISFKEMNPPDNIKDTKSDIIFFQRSVPGHDNKMQFESSSYEGYFLAAEKERDLFKLILKKEDELGDRSIMFTVQNED | 0.17 |
| C164 (ligand) YFGKLESKLSIIRNLNDQVLFIDQGNRPLFEDMTDSDARDNAPRTIFIISMYKDHQPRGMAVTISVKCEKISTLSAENKIISFKEMNPPDNIKDTKSDIIFFQRSVPGHDNKMQFESSSYEGYFLAAEKERDLFKLILKKEDELGDRSIMFTVQNED | 3.14 |
| C161 (ligand) YFGKLESRLSIIRNLNDQVLFIDQGNRPLFEDMTDSDARDNAPRTIFIISMYKDSQPRGMAVTISVKCEKISTLSAENKIISFKEMNPPDNIKDTKSDIIFFERSVPGHDNKMQFESSSYEGYFLAAEKERDLFKLILKKEDELGDRSIMFTVQNED | 2.01 |
| C145 (ligand) YFGKLESKLSIIRNLNDQVLFIDQGNRPLFEDMTDSDARDNAPRTIFIISMYADAQPRGMAVTISVKCEKISTLSAENKIISFKEMNPPDNIKDTKSDIIFFQRSVPGHDNKMQFESSSYEGYFLAAEKERDLFKLILKKEDELGDRSIMFTVQNED | 3.63 |
| C162 (ligand) YFGKLESELSIIRNLNDQVLFIDQGNRPLFEDMTDSDARDNAPRTIFIISMYKDSQPRGMAVTISVKCEKISTLSAENKIISFKEMNPPDNIKDTKSDIIFFRRSVPGHDNKMQFESSSYEGYFLAAEKERDLFKLILKKEDELGDRSIMFTVQNED | 2.3 |

[I] C158 (ligand) YFGKLESKLSIIRNLNDQVLFIDQGNRPLFEDMTDSDARDNAPRTIFIISMYADSQPRGMAVTISVKCEKISTLSAENKIISFKEMNPPDNIKDTKSDIIFFQRSVPAHDNKMQFESSSYEGYFLAAEKERDLFKLILKKEDELGDRSIMFTVQNED
[II] C140 (ligand) GGGGYFGKLKSKLSIIRNLNDQVLFIDQGNRPLFEDMTDSDARDNAPRTIFIISMYADSQPRGMAVAISVKCEKISTLSAENKIISFKEMNPPDNIKDTKSDIIFFQRSVPGHDNKMQFESSSYEGYFLAAEKERDLFKLILKKEDELGDRSIMFTVQNED
Prompt: Of I versus II , which is the one with smaller reported HEK-Blue IL-18R reporter EC50? State the label of the item chosen.
Completion: II
